Each recorded value in this set is attributed to patent US20150104448A1.

Each item that follows carries a reported Kd.
- test target: T1, purified human activated C1s protein, two-chain form (Homo sapiens, UniProt P09871 16-688)
- T1 construct: Also used here for C1s acting in human serum assays; also called human C1s; active C1s
- T1 sequence: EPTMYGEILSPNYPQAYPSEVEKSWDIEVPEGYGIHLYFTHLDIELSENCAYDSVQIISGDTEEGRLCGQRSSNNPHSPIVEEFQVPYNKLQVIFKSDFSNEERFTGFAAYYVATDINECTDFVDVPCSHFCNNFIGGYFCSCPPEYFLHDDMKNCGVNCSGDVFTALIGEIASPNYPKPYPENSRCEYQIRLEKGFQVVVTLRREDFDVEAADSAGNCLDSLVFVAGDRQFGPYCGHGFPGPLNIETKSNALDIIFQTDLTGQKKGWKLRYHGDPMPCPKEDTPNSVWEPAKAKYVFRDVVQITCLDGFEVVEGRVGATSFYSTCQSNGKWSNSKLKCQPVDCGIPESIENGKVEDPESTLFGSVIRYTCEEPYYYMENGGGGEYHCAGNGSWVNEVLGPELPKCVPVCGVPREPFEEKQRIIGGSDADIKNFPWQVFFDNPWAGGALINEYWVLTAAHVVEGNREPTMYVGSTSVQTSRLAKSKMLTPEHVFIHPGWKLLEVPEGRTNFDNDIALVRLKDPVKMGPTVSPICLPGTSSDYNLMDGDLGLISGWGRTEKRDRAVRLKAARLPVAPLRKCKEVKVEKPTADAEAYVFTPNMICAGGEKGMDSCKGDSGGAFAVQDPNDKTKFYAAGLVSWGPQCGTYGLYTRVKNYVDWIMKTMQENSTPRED
- assay method text: kinetic binding measurement, method not stated; Table 9, activated C1s
Respond with the figure and its unit, in that order.

What value of Kd has been reported for the following binder? VH3/Vk1 (antibody, V domains shown, member of group m7; also called VH3/Vκ1; VH variant 3 + Vk variant 1) VH: EVMLVESGGGLVKPGGSLRLSCAASGFTFSNYAMSWVRQAPGKGLEWVATISSGGSHTYYLDSVKGRFTISRDNSKDTLYLQMSSLRAEDTALYYCARLFTGYAMDYWGQGTSVTVSS VL: QIVLTQSPAILSLSPGERATMSCTASSSVSSSYLHWYQQKPGKAPKLWIYSTSNLASGVPSRFSGSGSGTFYTLTISSLQAEDFATYYCHQYYRLPPITFGQGTKLEIK
0.246 nM

# next binder below
May I ask what Kd has been recorded for VH1/Vk1 (antibody, V domains shown, member of group m7; also called VH1/Vκ1; VH variant 1 + Vk variant 1) VH: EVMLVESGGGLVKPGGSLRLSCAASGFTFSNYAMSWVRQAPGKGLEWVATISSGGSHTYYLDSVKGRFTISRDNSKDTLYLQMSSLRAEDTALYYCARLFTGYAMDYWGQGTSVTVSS VL: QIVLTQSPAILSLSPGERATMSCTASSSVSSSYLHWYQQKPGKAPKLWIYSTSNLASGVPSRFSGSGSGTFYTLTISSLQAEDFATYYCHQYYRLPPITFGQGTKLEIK ?
0.235 nM
